# Tested on: HOP-92 NSCLC
In this exercise, the only acceptable responses are active, inactive

Short answer needed: outcome of this test for Cc1cccc(CN(C)c2ccc(CO)c(Cl)c2)c1 ?
inactive

Short answer needed: outcome of this test for O=C(Nc1cccc(Cl)c1)Nc1cccc(Cl)c1 ?
inactive

Short answer needed: outcome of this test for O=C(N[C@H](c1ccc(Cl)c(Cl)c1)C1CNC1)c1ccc2cnccc2c1 ?
inactive

Short answer needed: outcome of this test for C=C1CC[C@@H]2C(C)(C)[C@@H](O)CC[C@@]2(C)[C@@H]1COc1ccc2ccc(=O)oc2c1 ?
inactive

Short answer needed: outcome of this test for CSC1=Nc2c(c(C)c(-c3ccccc3)n2COC(CO)CO)C2=NC(=O)C(C)N12 (stereo unspecified) ?
inactive

Short answer needed: outcome of this test for O=C1C2=C(C(=O)c3c(O)ccc(O)c31)N(c1ccc(N3CCOCC3)nc1)Cc1ccccc1O2 ?
active
